molecular target: H+,K+-ATPase (Sus scrofa, UniProt P19156); construct: The obtained microsomal fraction was used as a proton, potassium—adenosine triphosphatase standard product; assay: Proton potassium-adenosine triphosphatase (H+,K+-ATPase) inhibitory activity test; conditions: gastric mucous membrane microsomal fraction from swine stomach; pH 6.5, 37° C., malachite green colorimetry at 610 nm; read-out: IC50 (50% inhibitory concentration of proton, potassium-adenosine triphosphatase)
Sequence (P19156 2-1034 limits assumed): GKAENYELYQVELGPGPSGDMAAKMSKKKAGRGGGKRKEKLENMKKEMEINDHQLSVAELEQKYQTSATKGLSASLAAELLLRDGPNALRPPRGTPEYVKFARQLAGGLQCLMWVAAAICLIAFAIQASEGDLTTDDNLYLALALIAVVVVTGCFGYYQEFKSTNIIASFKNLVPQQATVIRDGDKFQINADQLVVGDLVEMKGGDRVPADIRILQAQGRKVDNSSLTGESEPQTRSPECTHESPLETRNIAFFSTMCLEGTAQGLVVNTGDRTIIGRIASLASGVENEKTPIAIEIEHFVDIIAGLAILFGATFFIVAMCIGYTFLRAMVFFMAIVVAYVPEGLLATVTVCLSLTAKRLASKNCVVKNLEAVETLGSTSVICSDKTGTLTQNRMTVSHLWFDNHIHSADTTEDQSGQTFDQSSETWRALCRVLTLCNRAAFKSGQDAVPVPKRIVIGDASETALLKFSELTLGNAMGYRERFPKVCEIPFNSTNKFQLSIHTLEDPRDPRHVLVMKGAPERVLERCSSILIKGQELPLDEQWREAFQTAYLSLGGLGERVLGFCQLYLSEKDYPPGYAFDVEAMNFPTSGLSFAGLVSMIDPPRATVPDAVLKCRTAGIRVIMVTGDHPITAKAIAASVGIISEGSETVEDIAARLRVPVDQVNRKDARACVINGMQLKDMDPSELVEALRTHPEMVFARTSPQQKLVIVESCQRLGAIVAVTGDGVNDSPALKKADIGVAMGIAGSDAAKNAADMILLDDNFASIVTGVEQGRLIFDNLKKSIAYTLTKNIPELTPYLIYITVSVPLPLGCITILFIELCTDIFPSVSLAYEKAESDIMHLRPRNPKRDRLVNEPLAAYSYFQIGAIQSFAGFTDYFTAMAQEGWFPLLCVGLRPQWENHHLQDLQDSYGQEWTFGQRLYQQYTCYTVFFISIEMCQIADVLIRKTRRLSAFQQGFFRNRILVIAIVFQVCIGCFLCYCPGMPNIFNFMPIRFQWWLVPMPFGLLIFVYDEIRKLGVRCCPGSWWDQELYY
Sequence (P18434 whole entry partner): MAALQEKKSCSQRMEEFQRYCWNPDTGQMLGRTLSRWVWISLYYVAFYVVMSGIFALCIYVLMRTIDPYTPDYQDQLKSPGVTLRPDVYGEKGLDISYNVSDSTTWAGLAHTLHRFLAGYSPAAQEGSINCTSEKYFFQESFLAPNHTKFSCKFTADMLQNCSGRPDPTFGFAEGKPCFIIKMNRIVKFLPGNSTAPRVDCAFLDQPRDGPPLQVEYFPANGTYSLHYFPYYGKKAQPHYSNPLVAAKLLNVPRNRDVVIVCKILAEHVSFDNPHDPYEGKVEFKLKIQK
pIC50: −log10 of the molar value. Where a name gives a salt, the structure may show the parent alone.
Assay Readout: pIC50

// known answers, use as guide
> print(dat)
                                   compound  test.value
1  Cc1ccc(S(=O)(=O)n2cc(CN(C)C)nc2-c2ccccc2)cc1        6.80
2  CNCc1nc(-c2ccccc2)c(S(=O)(=O)c2ccccc2)s1 [Example 12, hydrochloride]        6.77

[P] CNCc1cn(-c2ccccc2)c(S(=O)(=O)c2ccccc2)c1C [Example 1, hydrochloride]
[Q] CNCc1cn(S(=O)(=O)c2cccc(OC)c2)c(-c2ccccc2)n1 [Example 7, fumarate]
[ask] Among P and Q , whose measured pIC50 is the smaller figure? Pick one and reply with its label.
[reply] P

The origin of these recorded values is patent US8686010B2.
